measurementNotes: Determination of in vivo pharmacokinetic parameters (Biological Example 3)
Parameters: species or system rat
statedConditions: male, rat, whole blood; Blood, PO 3 mg/kg, Mean
measuredProperty: Cmax (ng/mL)
Your answer is read as ng/mL, so omit the unit and give the number.

Query: Identify measured Cmax associated with CC[C@H]1NC(=O)N(c2ccc(Oc3ccc(C)c4c3C3(CC3)CO4)cn2)C1=O [compound of the invention]
Reply: 1660

---

measurementNotes: Determination of in vivo pharmacokinetic parameters (Biological Example 3)
Set-up: species or system rat
statedConditions: male, rat, whole blood; Blood, PO 3 mg/kg, Mean
measuredProperty: half-life (min)
Your answer is read as min, so omit the unit and give the number.

Query: Identify measured half-life associated with CC[C@H]1NC(=O)N(c2ccc(Oc3ccc(C)c4c3C3(CC3)CO4)cn2)C1=O [compound of the invention]
Reply: 24.6
